experimental-target: Neu5Ac(a2-3)Gal(b1-4)Glc
test-details: glycan array binding signal (z-score within array); higher = stronger binding
reported-conditions: glycan notation: IUPAC condensed, linker removed
The full list was thinned out, with the strongest signals kept by preference.
Below: a set of entries, each annotated with reported glycan array binding signal (z-score).

CLC (Homo sapiens), Q9UBD9 (protein) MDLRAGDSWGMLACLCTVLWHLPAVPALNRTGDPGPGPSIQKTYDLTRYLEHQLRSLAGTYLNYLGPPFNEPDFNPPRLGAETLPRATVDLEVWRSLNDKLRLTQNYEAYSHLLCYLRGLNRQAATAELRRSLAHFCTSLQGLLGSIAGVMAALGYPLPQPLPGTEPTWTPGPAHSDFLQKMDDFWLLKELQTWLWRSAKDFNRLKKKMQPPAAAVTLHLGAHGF; 0.101

Kindly review the next binder as well.
**Q:** Given the binder SP15308A-bot-339-19-339 (Bacteroides ovatus) (protein) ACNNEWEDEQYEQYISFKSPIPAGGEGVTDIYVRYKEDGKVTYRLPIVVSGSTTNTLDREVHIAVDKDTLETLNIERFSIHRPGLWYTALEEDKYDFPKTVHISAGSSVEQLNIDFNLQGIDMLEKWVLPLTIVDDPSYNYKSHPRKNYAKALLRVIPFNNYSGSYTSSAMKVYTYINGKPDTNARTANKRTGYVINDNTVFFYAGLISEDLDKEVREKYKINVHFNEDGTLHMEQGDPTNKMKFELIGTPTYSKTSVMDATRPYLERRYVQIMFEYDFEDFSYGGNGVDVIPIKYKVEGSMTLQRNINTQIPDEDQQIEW , what is its reported glycan array binding signal (z-score)?
**A:** 0.997
